Target: T1, huCD46-His (human, UniProt P15529 35-343)
T1 construct: extracellular domain; Immobilised by amine coupling on the SPR chip; It may be the same protein as the ELISA antigen; also called Human CD46-His; human CD46; not shown: His tag
T1 sequence (looked up): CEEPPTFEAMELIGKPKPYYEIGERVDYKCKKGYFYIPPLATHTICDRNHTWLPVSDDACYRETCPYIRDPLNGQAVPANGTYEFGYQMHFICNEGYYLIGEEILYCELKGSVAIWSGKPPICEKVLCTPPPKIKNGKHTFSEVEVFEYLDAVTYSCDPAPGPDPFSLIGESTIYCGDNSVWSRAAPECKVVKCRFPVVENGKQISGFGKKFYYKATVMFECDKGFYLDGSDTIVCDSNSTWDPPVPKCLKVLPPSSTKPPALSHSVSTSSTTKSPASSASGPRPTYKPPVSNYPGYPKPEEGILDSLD
Experiment: SPR, huCD46-His immobilised, antibody as analyte, pH 7.4
Reported values of kon for individual entries
Give the number; M⁻¹ s⁻¹ is assumed, so skip it.

Some entries whose results are on file:
{"BINDER": "BA-133-04-02 (antibody, V domains shown, also called CPE hit BA133-04-02) VH: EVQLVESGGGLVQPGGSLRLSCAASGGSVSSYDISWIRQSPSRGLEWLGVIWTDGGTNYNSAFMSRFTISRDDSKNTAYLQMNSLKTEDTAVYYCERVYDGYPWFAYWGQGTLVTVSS VL: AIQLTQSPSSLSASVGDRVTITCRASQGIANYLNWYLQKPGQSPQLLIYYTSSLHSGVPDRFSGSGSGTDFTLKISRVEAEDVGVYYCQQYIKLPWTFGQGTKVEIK", "kon, M⁻¹ s⁻¹": 417000}
{"BINDER": "BA-133-04-03 (antibody, V domains shown, also called CPE hit BA133-04-03) VH: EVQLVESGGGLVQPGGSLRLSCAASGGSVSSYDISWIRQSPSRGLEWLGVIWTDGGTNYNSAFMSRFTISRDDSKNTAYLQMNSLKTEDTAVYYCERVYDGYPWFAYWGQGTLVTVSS VL: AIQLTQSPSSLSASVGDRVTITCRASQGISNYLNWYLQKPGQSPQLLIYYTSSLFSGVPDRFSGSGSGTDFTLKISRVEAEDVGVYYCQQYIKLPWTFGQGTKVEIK", "kon, M⁻¹ s⁻¹": 519000}
{"BINDER": "BA-133-04-04 (antibody, V domains shown, the killing assays used the ADC form; also called CPE hit BA133-04-04) VH: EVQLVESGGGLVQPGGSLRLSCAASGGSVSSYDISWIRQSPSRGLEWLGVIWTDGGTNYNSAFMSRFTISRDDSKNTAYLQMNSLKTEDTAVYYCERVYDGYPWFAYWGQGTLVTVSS VL: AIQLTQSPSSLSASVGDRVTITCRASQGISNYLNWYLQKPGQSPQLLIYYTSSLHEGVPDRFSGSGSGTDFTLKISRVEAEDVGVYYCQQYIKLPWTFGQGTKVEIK", "kon, M⁻¹ s⁻¹": 490000}
{"BINDER": "BA-133-04-01 (antibody, V domains shown, also called CPE hit BA133-04-01) VH: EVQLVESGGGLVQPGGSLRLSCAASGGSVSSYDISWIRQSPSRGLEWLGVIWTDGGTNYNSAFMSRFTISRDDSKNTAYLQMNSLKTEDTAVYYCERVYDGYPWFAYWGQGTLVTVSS VL: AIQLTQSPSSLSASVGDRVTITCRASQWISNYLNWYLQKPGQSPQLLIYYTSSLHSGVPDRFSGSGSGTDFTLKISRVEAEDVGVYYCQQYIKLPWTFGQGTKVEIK", "kon, M⁻¹ s⁻¹": 385000}
{"BINDER": "Benchmark (BM) BA-133-00-01 (antibody, V domains shown, the killing assays used the ADC form; Conjugation site and payload are not described; also called BM (bench mark)) VH: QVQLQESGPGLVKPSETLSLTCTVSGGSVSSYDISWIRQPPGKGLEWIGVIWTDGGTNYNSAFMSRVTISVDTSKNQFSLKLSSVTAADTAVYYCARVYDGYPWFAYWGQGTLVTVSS VL: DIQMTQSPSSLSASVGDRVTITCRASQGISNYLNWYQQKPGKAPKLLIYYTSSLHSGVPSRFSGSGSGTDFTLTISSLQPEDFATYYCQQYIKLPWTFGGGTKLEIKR", "kon, M⁻¹ s⁻¹": 555000}

response.value for BAP133-2-02-12 (antibody, V domains shown, also called BAP133-02-02-12; CPE hit BAP133-2-02-12) VH: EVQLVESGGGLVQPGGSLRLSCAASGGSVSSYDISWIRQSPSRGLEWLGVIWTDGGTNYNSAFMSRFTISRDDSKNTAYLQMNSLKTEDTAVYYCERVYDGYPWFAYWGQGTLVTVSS VL: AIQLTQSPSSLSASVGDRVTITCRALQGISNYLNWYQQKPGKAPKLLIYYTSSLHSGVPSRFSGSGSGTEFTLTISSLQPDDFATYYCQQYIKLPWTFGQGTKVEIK (field: kon) = 256000

response.value for BAP133-2-03-03-SL (antibody, V domains shown, the killing assays used the ADC form; also called BAP133-02-03-03-SL; CPE hit BAP133-2-03-03-SL) VH: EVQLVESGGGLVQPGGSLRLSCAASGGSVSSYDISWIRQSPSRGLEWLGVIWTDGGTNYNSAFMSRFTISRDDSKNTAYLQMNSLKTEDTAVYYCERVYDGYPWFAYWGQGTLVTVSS VL: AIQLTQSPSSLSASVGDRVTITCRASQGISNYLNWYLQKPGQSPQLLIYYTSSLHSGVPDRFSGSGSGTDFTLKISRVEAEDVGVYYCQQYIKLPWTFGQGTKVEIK (field: kon) = 874000

Hello, the source for this data is patent US20230242662A1, in case you need it.
